Here the recorded Wheat plant response rating is given for each entry.
# Test system: wheat (winter wheat, Triticum aestivum)
# ASSAY_NOTES: Test C greenhouse herbicide test, pre- and postemergence
# Assay type: in vivo
# CONDITIONS_USED: Postemergence, 62 g ai/ha; 0 to 100 scale (0 no effect, 100 complete control)
// keep it numeric: no unit symbol after the value

stdin: Look up Wheat plant response rating: Cc1nn(C)c(=O)c(-c2ccc(Cl)c3ccccc23)c1O [Compound 139]
stdout: 55

stdin: Look up Wheat plant response rating: Cc1nn(C)c(=O)c(-c2cccc3ccc(Br)cc23)c1O [Compound 126]
stdout: 0

stdin: Look up Wheat plant response rating: CCC(=O)Oc1c(C)nn(C)c(=O)c1-c1ccc(Br)c2ccccc12 [Compound 134]
stdout: 50

stdin: Look up Wheat plant response rating: COC(=O)Oc1c(C)nn(C)c(=O)c1-c1ccc(F)c2ccccc12 [Compound 130]
stdout: 5
